test system: Escherichia coli EC14; experiment: broth micro-dilution MIC; type: cell-based
property.name: MIC

CNC(CC(C)C)C(=O)NC1C(=O)NC(CC(N)=O)C(=O)NC2C(=O)NC3C(=O)NC(C(=O)NC(C(=O)O)c4cc(O)cc(O)c4-c4cc3ccc4O)C(OC3CC(C)(N)C(O)C(C)O3)c3ccc(c(Cl)c3)Oc3cc2cc(c3OC2OC(CO)C(O)C(O)C2OC2CC(C)(NCc3ccc4ccccc4n3)C(O)C(C)O2)Oc2ccc(cc2Cl)C1O (centres unmarked)    > 64 µg/mL

input: Form: Entry = CNC(CC(C)C)C(=O)NC1C(=O)NC(CC(N)=O)C(=O)NC2C(=O)NC3C(=O)NC(C(=O)NC(C(=O)O)c4cc(O)cc(O)c4-c4cc3ccc4O)C(OC3CC(C)(NCc4c5ccccc5c(C)c5ccccc45)C(O)C(C)O3)c3ccc(c(Cl)c3)Oc3cc2cc(c3OC2OC(CO)C(O)C(O)C2OC2CC(C)(NCc3c4ccccc4c(C)c4ccccc34)C(O)C(C)O2)Oc2ccc(cc2Cl)C1O (centres unmarked) | System = Escherichia coli EC14 | MIC = ____
output: > 64 µg/mL
